B1: Caulobacter ParB omega fusion; a variant is named by its letters at X, in order, B8GW30 (parent)
chain: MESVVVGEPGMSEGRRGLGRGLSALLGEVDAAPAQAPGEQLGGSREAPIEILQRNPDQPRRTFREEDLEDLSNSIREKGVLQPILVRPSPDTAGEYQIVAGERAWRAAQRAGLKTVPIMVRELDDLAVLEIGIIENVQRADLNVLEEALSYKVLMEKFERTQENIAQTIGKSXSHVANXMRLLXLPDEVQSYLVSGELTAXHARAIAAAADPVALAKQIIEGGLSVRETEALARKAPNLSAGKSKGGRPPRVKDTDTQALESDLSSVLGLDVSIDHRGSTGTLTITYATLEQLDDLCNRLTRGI

# Variants of: B1
# assaySummary: one-hybrid fitness for binding parS DNA (scaled: cognate 1, non-cognate 0); higher = stronger binding
# assayConditions: with parS DNA site
The full ranking holds about 81,000 sequences; the median of “one-hybrid fitness for binding parS DNA” is about -0.17, and the highest 2% start at about 0.51. Shown is part of a subset that was picked to be rich in the highest values.
# maps each entry to its one-hybrid fitness for binding parS DNA

[
  {
    "mutantId": "RRFP",
    "one-hybrid fitness for binding parS DNA": "≤ 0.2"
  },
  {
    "mutantId": "RAPD",
    "one-hybrid fitness for binding parS DNA": "≤ 0.2"
  },
  {
    "mutantId": "HVLG",
    "one-hybrid fitness for binding parS DNA": "≤ 0.2"
  },
  {
    "mutantId": "QVPW",
    "one-hybrid fitness for binding parS DNA": "≤ 0.2"
  },
  {
    "mutantId": "GAKE",
    "one-hybrid fitness for binding parS DNA": "≤ 0.2"
  }
]

Entry FSIV has what one-hybrid fitness for binding parS DNA? ≤ 0.2

Entry RAIH has what one-hybrid fitness for binding parS DNA? ≤ 0.2

Entry SPPK has what one-hybrid fitness for binding parS DNA? ≤ 0.2
